B1: CCND2 (parent)
chain: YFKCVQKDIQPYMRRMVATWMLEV

- Variants of: B1
- Protocol Notes: protein stability index of a GFP-peptide fusion (GPS, HEK-293T) (PSI 1-6); higher = more stable;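 note: lentivirally expressed fusions sorted by FACS into six bins by GFP to DsRed ratio, PSI derived from sequencing read proportions per bin multiplied by bin number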
- Experimental Parameters: c terminus: a fixed tail appended
Quantity: protein stability index

Construct Sequence	Quantity	Observed Result
YFKCVQKDIQPYMRRMVATWMLCV	protein stability index	2.61
YFKCRQKDIQPYMRRMVATWMLEV	protein stability index	4.02
YFKCVQKDIYPYMRRMVATWMLEV	protein stability index	3.78
YFKGVQKDIQPYMRRMVATWMLEV	protein stability index	2.21
YFKCVSKDIQPYMRRMVATWMLEV	protein stability index	2.37
YFKCVQKDIQPYMRRMVAHWMLEV	protein stability index	3.25
YFMCVQKDIQPYMRRMVATWMLEV	protein stability index	2.96
YFLCVQKDIQPYMRRMVATWMLEV	protein stability index	2.71
YFKCVQSDIQPYMRRMVATWMLEV	protein stability index	3.21
YFKCVQKDIQPYMRRPVATWMLEV	protein stability index	3.25
YFKCVQKDIQPYMRRMVATWMLKV	protein stability index	2.31
YFKCVQKDIQPSMRRMVATWMLEV	protein stability index	2.83
YFACVQKDIQPYMRRMVATWMLEV	protein stability index	2.64
YFKCVQKDIQPYMRRMVPTWMLEV	protein stability index	2.96
YFKCVQKDIQPYMRRMVAYWMLEV	protein stability index	3.88
YFKTVQKDIQPYMRRMVATWMLEV	protein stability index	1.74
YTKCVQKDIQPYMRRMVATWMLEV	protein stability index	2.61
YFKCVQKDIQPYMRIMVATWMLEV	protein stability index	2.75
YFHCVQKDIQPYMRRMVATWMLEV	protein stability index	3.13
YFKCVQKDIQPYMRRMVATWMLGV	protein stability index	3.51
YFKCVQKDIQPYMRRMVATWMLEW	protein stability index	1.91
YFKCVQKDIQPYMRRMIATWMLEV	protein stability index	2.65
YFKCVQKHIQPYMRRMVATWMLEV	protein stability index	2.21
LFKCVQKDIQPYMRRMVATWMLEV	protein stability index	2.14
YFKCVQKDIQPYMQRMVATWMLEV	protein stability index	1.73
YFKCVYKDIQPYMRRMVATWMLEV	protein stability index	2.64
YFKCVQYDIQPYMRRMVATWMLEV	protein stability index	2.54
YFKCVQKDIQPYMRRMVATSMLEV	protein stability index	2
YFKCVAKDIQPYMRRMVATWMLEV	protein stability index	1.97
YFKCVQKDIQPYMRRMVATWFLEV	protein stability index	1.96

This collection of values is drawn from the supplement of paper PMC10567573.
